- study-system: HA-ERα D538G (Homo sapiens, UniProt P03372, D538G)
- Construct: HA; expressed in transfected cells
- Sequence (P03372 whole entry D538G): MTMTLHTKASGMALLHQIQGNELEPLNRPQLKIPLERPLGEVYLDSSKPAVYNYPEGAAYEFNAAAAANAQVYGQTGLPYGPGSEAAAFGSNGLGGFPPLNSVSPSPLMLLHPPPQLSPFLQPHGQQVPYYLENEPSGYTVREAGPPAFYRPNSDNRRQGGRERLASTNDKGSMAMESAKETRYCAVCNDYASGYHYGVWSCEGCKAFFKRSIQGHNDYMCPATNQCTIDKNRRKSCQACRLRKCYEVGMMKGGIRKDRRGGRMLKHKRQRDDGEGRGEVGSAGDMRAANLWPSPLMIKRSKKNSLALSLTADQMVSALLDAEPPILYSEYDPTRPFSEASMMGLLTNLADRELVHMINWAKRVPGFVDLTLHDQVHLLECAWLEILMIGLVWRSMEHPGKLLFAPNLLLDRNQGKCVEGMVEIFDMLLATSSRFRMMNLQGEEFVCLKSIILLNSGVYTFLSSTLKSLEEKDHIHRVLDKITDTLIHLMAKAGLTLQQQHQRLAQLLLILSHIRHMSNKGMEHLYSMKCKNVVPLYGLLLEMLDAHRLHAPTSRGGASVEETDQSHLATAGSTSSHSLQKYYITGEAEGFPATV
- assay-notes: Luciferase assay, overexpressed ER (3×-ERE-TATA-Luciferase reporter)
- Type: cell-based
- test-context: compound concentration 1 μM, 24 hours
Answer class 0 if inhibition at 1 µM is under 80%, and class 1 if it is 80% or more.

compound	group-label
O=C(NCCCCOc1ccc(Oc2c(-c3ccc(O)cc3)sc3cc(O)ccc23)cc1)[C@H]1CC[C@H](C(F)(F)F)CC1 [Example 17]	class 1
O=C(NCCCCOc1ccc(C(=C2CCCCC2)c2ccc(O)cc2)cc1)C12CC3CC(CC(C3)C1)C2 [Example 26]	class 0
CC12CC3CC(C)(C1)CC(C(=O)NCCCCOc1ccc(C(=C4C5CC6CC(C5)CC4C6)c4ccc(O)cc4)cc1)(C3)C2 [Example 7]	class 1
O=C(NCCCCOc1ccc(C(=C2C3CC4CC(C3)CC2C4)c2ccc(O)cc2)cc1)[C@H]1C[C@@H]2C=C[C@H]1C2 [Example 9]	class 1
O=C(NCCCCOc1ccc(C(=C2CCCCC2)c2ccc(O)cc2)cc1)C1CCCCC1 [Example 23]	class 0
O=C(NCCCCOc1ccc(C(=C2CCCCC2)c2ccc(O)cc2)cc1)C1CCC1 [Example 24]	class 0

Would you say O=C(COc1cccc2c1C(=O)N(C1CCC(=O)NC1=O)C2=O)NCCCCCCOc1ccc(C(=C2C3CC4CC(C3)CC2C4)c2ccc(O)cc2)cc1 (centres unmarked) [Example 16] shows inhibition at 1 µM at minimum 80%? class 0

Would you say O=C1CCC(N2C(=O)c3cccc(OCCOCCOCCOc4ccc(C(=C5C6CC7CC(C6)CC5C7)c5ccc(O)cc5)cc4)c3C2=O)C(=O)N1 (centres unmarked) [Example 18] shows inhibition at 1 µM at minimum 80%? class 1

Would you say O=C1CCC(N2C(=O)c3cccc(OCCOCCOc4ccc(C(=C5C6CC7CC(C6)CC5C7)c5ccc(O)cc5)cc4)c3C2=O)C(=O)N1 (centres unmarked) [Example 19] shows inhibition at 1 µM at minimum 80%? class 1

Would you say O=C(NCCCCOc1ccc(C(=C2CCCCC2)c2ccc(O)cc2)cc1)[C@H]1CC[C@H](C(F)(F)F)CC1 [Example 25] shows inhibition at 1 µM at minimum 80%? class 0

Would you say O=C(NCCCCOc1ccc(C(=C2C3CC4CC(C3)CC2C4)c2ccc(O)cc2)cc1)[C@H]1CC[C@H](C(F)(F)F)CC1 [Example 14] shows inhibition at 1 µM at minimum 80%? class 1

Would you say CC(C)(C)OC(=O)N[C@@H](Cc1c[nH]c2ccccc12)C(=O)NCCCCOc1ccc(C(=C2C3CC4CC(C3)CC2C4)c2ccc(O)cc2)cc1 [Example 1] shows inhibition at 1 µM at minimum 80%? class 1

Would you say O=C(NCCCCOc1ccc(Oc2c(-c3ccc(O)cc3)sc3cc(O)ccc23)cc1)C1CCC1 [Example 28] shows inhibition at 1 µM at minimum 80%? class 0

Would you say O=C(COc1cccc2c1C(=O)N(C1CCC(=O)NC1=O)C2=O)NCCCCOc1ccc(C(=C2C3CC4CC(C3)CC2C4)c2ccc(O)cc2)cc1 (centres unmarked) [Example 15] shows inhibition at 1 µM at minimum 80%? class 1

====

- study-system: HA-ERα wild type (Homo sapiens)
- Construct: HA; expressed in transfected cells
- Sequence (P03372 whole entry): as the sequence (P03372 whole entry D538G) above, with G538D counted along it
- assay-notes: Luciferase assay, overexpressed ER (3×-ERE-TATA-Luciferase reporter)
- Type: cell-based
- test-context: compound concentration 1 μM, 24 hours; read-out: Overexpressed ER (% Inhibition) WT
Answer no (0) if inhibition at 1 µM is under 80%, and yes (1) if it is 80% or more.

Would you say O=C(NCCCCOc1ccc(C(=C2C3CC4CC(C3)CC2C4)c2ccc(O)cc2)cc1)C1CC1(F)F (centres unmarked) [Example 32] shows inhibition at 1 µM at minimum 80%? no (0)

Would you say O=C(NCCCCOc1ccc(C(=C2C3CC4CC(C3)CC2C4)c2ccc(O)cc2)cc1)C12CC3CC(CC1C3)C2 [Example 8] shows inhibition at 1 µM at minimum 80%? yes (1)

Would you say O=C(NCCCCOc1ccc(C(=C2C3CC4CC(C3)CC2C4)c2ccc(O)cc2)cc1)C1CCCCC1 [Example 11] shows inhibition at 1 µM at minimum 80%? yes (1)

Would you say O=C(NCCCCOc1ccc(Oc2c(-c3ccc(O)cc3)sc3cc(O)ccc23)cc1)C1CC(F)(F)C1 [Example 29] shows inhibition at 1 µM at minimum 80%? no (0)

Would you say O=C(NCCCCOc1ccc(C(=C2C3CC4CC(C3)CC2C4)c2ccc(O)cc2)cc1)[C@H]1C[C@@H]2C=C[C@H]1C2 [Example 9] shows inhibition at 1 µM at minimum 80%? yes (1)

Would you say O=C(COc1cccc2c1C(=O)N(C1CCC(=O)NC1=O)C2=O)NCCCCOc1ccc(C(=C2C3CC4CC(C3)CC2C4)c2ccc(O)cc2)cc1 (centres unmarked) [Example 15] shows inhibition at 1 µM at minimum 80%? yes (1)

Would you say CC(C)(C)OC(=O)N[C@@H](Cc1c[nH]c2ccccc12)C(=O)NCCCCOc1ccc(C(=C2C3CC4CC(C3)CC2C4)c2ccc(O)cc2)cc1 [Example 1] shows inhibition at 1 µM at minimum 80%? no (0)
